- method.description: activity coefficient (dimensionless); of the first substance listed, at infinite dilution; xn = mol fraction of the nth substance listed
- recorded.conditions: 328.15 K; 101.33 kPa; Liquid; Chromatography; x1 = 0
quantity.measured: activity coefficient

Prompt line: Quick one: activity coefficient of CCCC=O [butanal] + CC[N+]1(C)CCOCC1.N#CN=C=[N-] ?
Response line: 3.65

Prompt line: Quick one: activity coefficient of C=C(C)c1ccccc1 [(1-methylethenyl)benzene] + CC[N+]1(C)CCOCC1.N#CN=C=[N-] ?
Response line: 11.1

Prompt line: Quick one: activity coefficient of CCOCC [diethyl ether] + CC[N+]1(C)CCOCC1.N#CN=C=[N-] ?
Response line: 28.5

Prompt line: Quick one: activity coefficient of CCC[N+](=O)[O-] [1-nitropropane] + CC[N+]1(C)CCOCC1.N#CN=C=[N-] ?
Response line: 2.39

Prompt line: Quick one: activity coefficient of c1ccccc1 [benzene] + CC[N+]1(C)CCOCC1.N#CN=C=[N-] ?
Response line: 4.62

Prompt line: Quick one: activity coefficient of CC1CCCCC1 [methylcyclohexane] + CC[N+]1(C)CCOCC1.N#CN=C=[N-] ?
Response line: 263

Prompt line: Quick one: activity coefficient of C1CCCCCCC1 [cyclooctane] + CC[N+]1(C)CCOCC1.N#CN=C=[N-] ?
Response line: 293

Prompt line: Quick one: activity coefficient of c1ccsc1 [thiophene] + CC[N+]1(C)CCOCC1.N#CN=C=[N-] ?
Response line: 2.36

Prompt line: Quick one: activity coefficient of C1COCCO1 [1,4-dioxane] + CC[N+]1(C)CCOCC1.N#CN=C=[N-] ?
Response line: 1.69

====

- method.description: activity coefficient (dimensionless); of the first substance listed, at infinite dilution; xn = mol fraction of the nth substance listed
- recorded.conditions: 358.15 K; 101.33 kPa; Liquid; Chromatography; x1 = 0
# activity coefficient >= 800 gives rule met, anything below gives rule not met

Prompt line: Does the reported activity coefficient for C1COCCO1 [1,4-dioxane] + CC[N+]1(C)CCOCC1.N#CN=C=[N-] fall at or above the 800 mark?
Response line: rule not met

Prompt line: Does the reported activity coefficient for CCCC(=O)OC [methyl butanoate] + CC[N+]1(C)CCOCC1.N#CN=C=[N-] fall at or above the 800 mark?
Response line: rule not met

Prompt line: Does the reported activity coefficient for C=CCCCCC [1-heptene] + CC[N+]1(C)CCOCC1.N#CN=C=[N-] fall at or above the 800 mark?
Response line: rule not met

Prompt line: Does the reported activity coefficient for COC(C)=O [methyl ethanoate] + CC[N+]1(C)CCOCC1.N#CN=C=[N-] fall at or above the 800 mark?
Response line: rule not met

Prompt line: Does the reported activity coefficient for CCCCCCCCC [nonane] + CC[N+]1(C)CCOCC1.N#CN=C=[N-] fall at or above the 800 mark?
Response line: rule met

====

- method.description: activity coefficient (dimensionless); of the first substance listed, at infinite dilution; xn = mol fraction of the nth substance listed
- recorded.conditions: 328.15 K; 101.33 kPa; Liquid; Chromatography; x1 = 0
I'd appreciate it if you could supply activity coefficient values for the items below.
I'd appreciate a reply containing only the number, no unit.

Prompt line: Quick one: activity coefficient of CCCCCCCCCC [decane] + CC[N+]1(C)CCOCC1.N#CN=C=[N-] ?
Response line: 2030

Prompt line: Quick one: activity coefficient of CCC(=O)OC [methyl propanoate] + CC[N+]1(C)CCOCC1.N#CN=C=[N-] ?
Response line: 5.36

Prompt line: Quick one: activity coefficient of O [water] + CC[N+]1(C)CCOCC1.N#CN=C=[N-] ?
Response line: 0.337

Prompt line: Quick one: activity coefficient of CCCCO [butan-1-ol] + CC[N+]1(C)CCOCC1.N#CN=C=[N-] ?
Response line: 3.02

Prompt line: Quick one: activity coefficient of C=CCCCCCCCC [1-decene] + CC[N+]1(C)CCOCC1.N#CN=C=[N-] ?
Response line: 1070

Prompt line: Quick one: activity coefficient of CCCCCCCC [octane] + CC[N+]1(C)CCOCC1.N#CN=C=[N-] ?
Response line: 1010

Prompt line: Quick one: activity coefficient of CCC(C)O (stereo not given) [butan-2-ol] + CC[N+]1(C)CCOCC1.N#CN=C=[N-] ?
Response line: 2.94

Prompt line: Quick one: activity coefficient of CC(C)c1ccccc1 [isopropylbenzene] + CC[N+]1(C)CCOCC1.N#CN=C=[N-] ?
Response line: 26.9

Prompt line: Quick one: activity coefficient of CCCCCCC [heptane] + CC[N+]1(C)CCOCC1.N#CN=C=[N-] ?
Response line: 645

Prompt line: Quick one: activity coefficient of c1ccncc1 [pyridine] + CC[N+]1(C)CCOCC1.N#CN=C=[N-] ?
Response line: 1.81

====

- method.description: activity coefficient (dimensionless); of the first substance listed, at infinite dilution; xn = mol fraction of the nth substance listed
- recorded.conditions: 348.15 K; 101.33 kPa; Liquid; Chromatography; x1 = 0
# activity coefficient >= 3 gives Condition met, anything below gives Condition not met

Prompt line: Does the reported activity coefficient for CCC[N+](=O)[O-] [1-nitropropane] + CC[N+]1(C)CCOCC1.N#CN=C=[N-] fall at or above the 3 mark?
Response line: Condition not met

Prompt line: Does the reported activity coefficient for CC(C)CO [2-methyl-1-propanol] + CC[N+]1(C)CCOCC1.N#CN=C=[N-] fall at or above the 3 mark?
Response line: Condition not met

Prompt line: Does the reported activity coefficient for CCO [ethanol] + CC[N+]1(C)CCOCC1.N#CN=C=[N-] fall at or above the 3 mark?
Response line: Condition not met

Prompt line: Does the reported activity coefficient for CCOCC [diethyl ether] + CC[N+]1(C)CCOCC1.N#CN=C=[N-] fall at or above the 3 mark?
Response line: Condition met

Prompt line: Does the reported activity coefficient for CCC(=O)CC [pentan-3-one] + CC[N+]1(C)CCOCC1.N#CN=C=[N-] fall at or above the 3 mark?
Response line: Condition met

Prompt line: Does the reported activity coefficient for CCOC(C)(C)C [2-ethoxy-2-methylpropane] + CC[N+]1(C)CCOCC1.N#CN=C=[N-] fall at or above the 3 mark?
Response line: Condition met

Prompt line: Does the reported activity coefficient for C=CCCCCCCCC [1-decene] + CC[N+]1(C)CCOCC1.N#CN=C=[N-] fall at or above the 3 mark?
Response line: Condition met

Prompt line: Does the reported activity coefficient for c1ccccc1 [benzene] + CC[N+]1(C)CCOCC1.N#CN=C=[N-] fall at or above the 3 mark?
Response line: Condition met

Prompt line: Does the reported activity coefficient for CCC(C)O (stereo not drawn) [butan-2-ol] + CC[N+]1(C)CCOCC1.N#CN=C=[N-] fall at or above the 3 mark?
Response line: Condition not met

Prompt line: Does the reported activity coefficient for Cc1ccccc1 [toluene] + CC[N+]1(C)CCOCC1.N#CN=C=[N-] fall at or above the 3 mark?
Response line: Condition met

Prompt line: Does the reported activity coefficient for CO [methanol] + CC[N+]1(C)CCOCC1.N#CN=C=[N-] fall at or above the 3 mark?
Response line: Condition not met

Prompt line: Does the reported activity coefficient for C=Cc1ccccc1 [styrene] + CC[N+]1(C)CCOCC1.N#CN=C=[N-] fall at or above the 3 mark?
Response line: Condition met

Prompt line: Does the reported activity coefficient for C1COCCO1 [1,4-dioxane] + CC[N+]1(C)CCOCC1.N#CN=C=[N-] fall at or above the 3 mark?
Response line: Condition not met

Prompt line: Does the reported activity coefficient for CCOC(C)=O [ethyl acetate] + CC[N+]1(C)CCOCC1.N#CN=C=[N-] fall at or above the 3 mark?
Response line: Condition met

Prompt line: Does the reported activity coefficient for CCCOCCC [dipropyl ether] + CC[N+]1(C)CCOCC1.N#CN=C=[N-] fall at or above the 3 mark?
Response line: Condition met

Prompt line: Does the reported activity coefficient for CCCCCCCCCC [decane] + CC[N+]1(C)CCOCC1.N#CN=C=[N-] fall at or above the 3 mark?
Response line: Condition met

Prompt line: Does the reported activity coefficient for CCCO [propan-1-ol] + CC[N+]1(C)CCOCC1.N#CN=C=[N-] fall at or above the 3 mark?
Response line: Condition not met

Prompt line: Does the reported activity coefficient for C=C(C)c1ccccc1 [(1-methylethenyl)benzene] + CC[N+]1(C)CCOCC1.N#CN=C=[N-] fall at or above the 3 mark?
Response line: Condition met

Prompt line: Does the reported activity coefficient for CC(C)=O [acetone] + CC[N+]1(C)CCOCC1.N#CN=C=[N-] fall at or above the 3 mark?
Response line: Condition not met

Prompt line: Does the reported activity coefficient for CCc1ccccc1 [ethylbenzene] + CC[N+]1(C)CCOCC1.N#CN=C=[N-] fall at or above the 3 mark?
Response line: Condition met

Prompt line: Does the reported activity coefficient for CC1CCCCC1 [methylcyclohexane] + CC[N+]1(C)CCOCC1.N#CN=C=[N-] fall at or above the 3 mark?
Response line: Condition met

Prompt line: Does the reported activity coefficient for CCC(C)(C)OC [2-methoxy-2-methylbutane] + CC[N+]1(C)CCOCC1.N#CN=C=[N-] fall at or above the 3 mark?
Response line: Condition met

Prompt line: Does the reported activity coefficient for COC(C)(C)C [2-methoxy-2-methylpropane] + CC[N+]1(C)CCOCC1.N#CN=C=[N-] fall at or above the 3 mark?
Response line: Condition met

Prompt line: Does the reported activity coefficient for c1ccncc1 [pyridine] + CC[N+]1(C)CCOCC1.N#CN=C=[N-] fall at or above the 3 mark?
Response line: Condition not met

Prompt line: Does the reported activity coefficient for CCCCCCCCC [nonane] + CC[N+]1(C)CCOCC1.N#CN=C=[N-] fall at or above the 3 mark?
Response line: Condition met

Prompt line: Does the reported activity coefficient for C#CCCCCC [1-heptyne] + CC[N+]1(C)CCOCC1.N#CN=C=[N-] fall at or above the 3 mark?
Response line: Condition met

Prompt line: Does the reported activity coefficient for c1ccsc1 [thiophene] + CC[N+]1(C)CCOCC1.N#CN=C=[N-] fall at or above the 3 mark?
Response line: Condition not met

Prompt line: Does the reported activity coefficient for C1CCCCC1 [cyclohexane] + CC[N+]1(C)CCOCC1.N#CN=C=[N-] fall at or above the 3 mark?
Response line: Condition met

Prompt line: Does the reported activity coefficient for C1CCOC1 [tetrahydrofuran] + CC[N+]1(C)CCOCC1.N#CN=C=[N-] fall at or above the 3 mark?
Response line: Condition met

Prompt line: Does the reported activity coefficient for C#CCCCC [1-hexyne] + CC[N+]1(C)CCOCC1.N#CN=C=[N-] fall at or above the 3 mark?
Response line: Condition met

Prompt line: Does the reported activity coefficient for C#CCCC [1-pentyne] + CC[N+]1(C)CCOCC1.N#CN=C=[N-] fall at or above the 3 mark?
Response line: Condition met

Prompt line: Does the reported activity coefficient for C=CCCCCC [1-heptene] + CC[N+]1(C)CCOCC1.N#CN=C=[N-] fall at or above the 3 mark?
Response line: Condition met

Prompt line: Does the reported activity coefficient for CCCC(C)=O [pentan-2-one] + CC[N+]1(C)CCOCC1.N#CN=C=[N-] fall at or above the 3 mark?
Response line: Condition met

Prompt line: Does the reported activity coefficient for O [water] + CC[N+]1(C)CCOCC1.N#CN=C=[N-] fall at or above the 3 mark?
Response line: Condition not met

Prompt line: Does the reported activity coefficient for Cc1cccc(C)c1 [1,3-dimethylbenzene] + CC[N+]1(C)CCOCC1.N#CN=C=[N-] fall at or above the 3 mark?
Response line: Condition met

Prompt line: Does the reported activity coefficient for CC(C)(C)O [2-methylpropan-2-ol] + CC[N+]1(C)CCOCC1.N#CN=C=[N-] fall at or above the 3 mark?
Response line: Condition not met

Prompt line: Does the reported activity coefficient for COC(C)=O [methyl ethanoate] + CC[N+]1(C)CCOCC1.N#CN=C=[N-] fall at or above the 3 mark?
Response line: Condition met
